The measured values listed here are drawn from PubChem BioAssay AID686978.

# assay_explanation: qHTS for Inhibitors of human tyrosyl-DNA phosphodiesterase 1 (TDP1): qHTS in cells in absence of CPT; note: nearly all actives have a fitted effect of over 55% in size
# measurement_parameters: DT40 Tdp1-/- hTDP1 cells, no CPT, ATP luminescence, 48 h
# Description: Human tyrosyl-DNA phosphodiesterase 1 (TDP1) is a novel repair gene, and we propose to use it as a new target for anticancer drug development. […] For the primary screen, Tdp1-/-;hTDP1 cells will be exposed to small molecules in the presence or absence of CPT, and their growth kinetics will be evaluated after 48 hours by measuring ATP activity. […] The hit compounds will then be evaluated in the presence or absence of CPT using Tdp1-/- cells. […]
Among all 420,000 compounds or so, about 64,000 (15%) were called active. Inconclusive results (about 27%) are left out. Not all results are given here.
property_name: outcome

Known outcome results, listed for orientation:
Cc1ccc(S(=O)(=O)c2ccc(Cl)cc2)cc1S(=O)(=O)NC(C(=O)O)C(C)C (stereo unspecified) | inactive
CCC(C(=O)N1CCN(S(=O)(=O)c2sc(C(=O)O)c(C)c2C(=O)O)CC1)c1ccccc1 (stereo unspecified) | inactive
Cc1cccc(Oc2c([N+](=O)[O-])c(=O)n(C)c3ccccc23)c1 | inactive
COc1ccc(C(CNC(=O)c2cc3c(s2)CCCC3)N2CCOCC2)cc1 (stereo unspecified) | inactive
Cc1cc(C)c(-c2c(O)c3ccccc3n(C)c2=O)c(C)c1 | inactive
Cc1nnc(SC(C)C(=O)c2c[nH]c3ccccc23)n1C1CC1 (stereo unspecified) | inactive
Nc1cc2c(cc1Br)-c1ccc(F)cc1C2=O | inactive
CN=C(NC#N)NCCSCc1nc[nH]c1C | inactive

Exercise: For CC1=NNC(=O)C1Cc1c(Cl)cccc1Cl (stereo unspecified) , what is its reported outcome?
Key: inactive

Exercise: Please look up its outcome: O=C(NCC1Cc2cc(F)cc(-c3cnccn3)c2O1)C1COc2ccccc2O1 (stereo unspecified)
Key: inactive

Exercise: Fill in: outcome of Cc1cc(C)cc(NC(=O)c2cccc(NC(=O)C3C4CC5OC(=O)C3C5C4)c2)c1 (stereo unspecified) is ___
Key: inactive
